Species: Rattus norvegicus
Test: DrugMatrix - Regimen: Daily Repeat
Format: toxicity, organism-based, Sprague-Dawley
Parameters: regimen Daily Repeat, gender Male, age 6-8 weeks
Settings: in vivo, po, 1500 mg/kg, 120 h, tissue Blood, route oral GAVAGE, dose level High, time 5 day, vehicle .5 % CMC
The reader will find reported MONOCYTE values listed item by item below.
Please reply with the bare figure in % and do not write the unit itself.

Solved cases below.
| COMPOUND | UNIT ANNOTATION | MEAS VALUE |
| --- | --- | --- |
| NC(=O)c1cnccn1 [PYRAZINAMIDE] | % | 3.67 |
| C[C@]1(Cn2ccnn2)[C@H](C(=O)O)N2C(=O)C[C@H]2S1(=O)=O | % | 0 |

Now turn to the next compound.
Per the records, this compound ( Cc1ccc(S(=O)(=O)NC(=O)NN2CC3CCCC3C2)cc1 (stereo not drawn) [GLICLAZIDE] ) has MONOCYTE equal to 0.67

====

Species on record: Rattus norvegicus
Assay: DrugMatrix - Regimen: Daily Repeat
Type: toxicity, organism-based, Sprague-Dawley
Parameters: regimen Daily Repeat, gender Male, age 6-8 weeks
Conditions: in vivo, po, 1500 mg/kg, 72 h, tissue Blood, route oral GAVAGE, dose level High, time 3 day, vehicle .5 % CMC
The reader will find reported NUCLEATED RED BLOOD CELLS values listed item by item below.

Solved cases below.
| MOLECULE | NUCLEATED RED BLOOD CELLS |
| --- | --- |
| Cc1cc(=O)n(-c2ccccc2)n1C [ANTIPYRINE] | 0.33 /100WBC |
| CNC(=C[N+](=O)[O-])NCCSCc1ccc(CN(C)C)o1 | 0.33 /100WBC |
| CO[C@H]1/C=C/O[C@@]2(C)Oc3c(C)c(O)c4c(c3C2=O)C2=NC3(CCN(CC(C)C)CC3)NC2=C(NC(=O)/C(C)=C\C=C\[C@H](C)[C@H](O)[C@@H](C)[C@@H](O)[C@@H](C)[C@H](OC(C)=O)[C@@H]1C)C4=O | 0 /100WBC |

Per the records, this molecule ( NC(=O)c1cnccn1 [PYRAZINAMIDE] ) has NUCLEATED RED BLOOD CELLS equal to 0 /100WBC

Per the records, this molecule ( C[C@]1(Cn2ccnn2)[C@H](C(=O)O)N2C(=O)C[C@H]2S1(=O)=O ) has NUCLEATED RED BLOOD CELLS equal to 0 /100WBC

====

Species: Rattus norvegicus
Test: DrugMatrix - Regimen: Daily Repeat
Format: toxicity, organism-based, Sprague-Dawley
Parameters: regimen Daily Repeat, gender Male, age 6-8 weeks
Details: in vivo, po, 0 mg/kg, 72 h, tissue Blood, route oral GAVAGE, dose level Control, time 3 day, […]
MEASURED PROPERTY: NEUTROPHIL (%)
Please reply with the bare figure in % and do not write the unit itself.

| MOLECULE | UNIT ANNOTATION | NEUTROPHIL |
| --- | --- | --- |
| CC(=O)Nc1ccc(O)cc1 | % | 9.17 |

Per the records, this molecule ( CCCCCCCCc1ccc(O)cc1 ) has NEUTROPHIL equal to 9.83

Per the records, this molecule ( CC(C)Cc1ccc(C(C)C(=O)O)cc1 (stereo not drawn) ) has NEUTROPHIL equal to 9
